- ASSAY TARGET: BTK (phospho-BTK) in human whole blood (Homo sapiens, UniProt Q06187)
- Sequence (Q06187 whole entry): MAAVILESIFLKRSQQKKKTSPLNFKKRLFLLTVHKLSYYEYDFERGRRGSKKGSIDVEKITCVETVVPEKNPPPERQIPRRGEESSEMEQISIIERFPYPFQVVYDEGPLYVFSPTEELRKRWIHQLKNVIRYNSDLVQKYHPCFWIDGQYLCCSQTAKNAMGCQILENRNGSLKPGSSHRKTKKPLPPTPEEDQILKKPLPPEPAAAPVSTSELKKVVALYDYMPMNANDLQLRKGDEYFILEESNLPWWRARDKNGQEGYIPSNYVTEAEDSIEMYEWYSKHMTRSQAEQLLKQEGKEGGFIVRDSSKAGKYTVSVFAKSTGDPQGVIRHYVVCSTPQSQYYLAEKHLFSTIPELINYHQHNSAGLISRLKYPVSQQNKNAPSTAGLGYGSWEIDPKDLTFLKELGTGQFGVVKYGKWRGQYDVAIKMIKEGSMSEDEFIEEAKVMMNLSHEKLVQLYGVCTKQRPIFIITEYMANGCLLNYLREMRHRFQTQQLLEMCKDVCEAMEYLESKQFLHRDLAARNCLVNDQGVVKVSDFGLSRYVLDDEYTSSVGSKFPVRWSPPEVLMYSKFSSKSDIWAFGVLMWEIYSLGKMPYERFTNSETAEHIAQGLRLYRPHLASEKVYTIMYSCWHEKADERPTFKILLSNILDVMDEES
- EXPERIMENT: In vitro PD assay in human whole blood (pBTK assay)
Listed next: entries and their corresponding IC50.
READOUT TYPE: IC50

1. Cc1cc(-c2cc(Nc3cc4n(n3)CCN(C)C4)ncn2)ccc1CNC(=O)N1CC(OC(C)C)C1; < 500 nM
2. Cc1cc(-c2ccnc(Nc3cnn(C4CNC4)c3)n2)ccc1CNC(=O)c1cnc(C(C)(C)C)s1; < 500 nM
3. Cc1cc(-c2ccnc(Nc3cnn(C4CC(C(=O)O)C4)c3)n2)ccc1CNC(=O)c1cnc(C(C)(C)C)s1 (centres unmarked); < 500 nM
4. Cc1cc(-c2cc(Nc3cnn(C)n3)ncn2)ccc1CNC(=O)c1cnc(C(C)(C)C)s1; 500 to 1500 nM
5. [2H]C([2H])([2H])C(OC1CN(C(=O)NCc2ccc(-c3ccnc(Nc4cnn(CC)c4)n3)cc2C)C1)C([2H])([2H])[2H]; < 500 nM
6. CC(C)(C)C1CCN(C(=O)NCc2ccc(-c3ccnc(Nc4cnn(C5CC5)c4)n3)cc2C(F)(F)F)C1 (centres unmarked); < 500 nM
7. COCCn1cc(Nc2nccc(-c3ccc(CNC(=O)N4CCC(C(C)(C)C)C4)c(C)c3)n2)cn1 (centres unmarked); < 500 nM
8. Cc1c(Nc2nccc(-c3ccc4c(c3)CCCCC4NC(=O)N3CC(OC(C)(C)C)C3)n2)cnn1C (centres unmarked); < 500 nM
9. CCCC1CN(C(=O)NCc2ccc(-c3ccnc(Nc4cnn(C)c4)n3)cc2C)C1; < 500 nM
10. CC(C)OC1CN(C(=O)NC2CCN(CCO)Cc3cc(-c4ccnc(Nc5cnn(C)c5)n4)ccc32)C1 (centres unmarked); < 500 nM
11. Cc1cc(-c2ccnc(Nc3cnn(C)c3)n2)ccc1CNC(=O)c1cc2c(s1)CCCO2; < 500 nM
12. CC(C)OC1CN(C(=O)NC2CNCCc3cc(-c4ccnc(Nc5cnn(C)c5)n4)ccc32)C1 (centres unmarked); < 500 nM
13. Cc1cc(-c2cc(Nc3cc4n(n3)CCNC4)ncn2)ccc1CNC(=O)c1cnc(C(C)(C)C)s1; < 500 nM
14. CCn1cc(Nc2nccc(-c3ccc(CNC(=O)N4CC(OC(C)(C)C)C4)c(C)c3)n2)cn1; < 500 nM
15. Cc1cc(-c2ccnc(Nc3cn(C)nc3C)n2)ccc1CNC(=O)c1cnc(C(C)(C)C)s1; 500 to 1500 nM
16. Cn1cc(Nc2nccc(-c3ccc(CNC(=O)c4cnn(C(C)(C)C)c4)c(CCO)c3)n2)cn1; < 500 nM
17. Cc1cc(-c2ccnc(Nc3cnn(C[C@H](O)CN)c3)n2)ccc1CNC(=O)c1cnc(C(C)(C)C)s1; 500 to 1500 nM
18. Cn1cc(Nc2nccc(-c3ccc(CNC(=O)c4cnn(C(C)(C)C)c4)c(C#N)c3)n2)cn1; < 500 nM
19. CN1CCn2nc(Nc3cc(-c4ccc(CNC(=O)c5cnn(C(C)(C)C)c5)c(C(F)(F)F)c4)ncn3)cc2C1; < 500 nM
20. Cc1cc(-c2cc(Nc3cn(C)cn3)ncn2)ccc1CNC(=O)c1cnc(C(C)(C)C)s1; 500 to 1500 nM
21. Cc1cc(-c2ccnc(Nc3cnn(C)c3)n2)ccc1CNC(=O)N1CC[C@H](C(C)(C)C)C1; < 500 nM
22. Cc1cc(-c2ccnc(Nc3cnn(C4CN(C)C4)c3)n2)ccc1CNC(=O)N1CC(OC(C)(C)C)C1; < 500 nM
23. Cn1cc(Nc2nccc(-c3ccc(CNC(=O)c4cnn(C(C)(C)C)c4)c(Cl)c3)n2)cn1; < 500 nM
24. Cn1cc(Nc2nccc(-c3ccc4c(c3)CCCC4NC(=O)N3CC(OC(C)(C)C)C3)n2)cn1 (centres unmarked); < 500 nM
25. Cc1cc(-c2cc(Nc3cc4n(n3)CC(C)N(C)C4)ncn2)ccc1CNC(=O)c1cnn(C(C)(C)C)c1 (centres unmarked); < 500 nM
26. CN1CC(n2cc(Nc3nccc(-c4ccc(CNC(=O)c5cc(C(C)(C)C)on5)c(C(F)(F)F)c4)n3)cn2)C1; < 500 nM
27. Cc1cc(-c2ccnc(Nc3cnn(C)c3C)n2)ccc1CNC(=O)N1CC(OC(C)(C)C)C1; 500 to 1500 nM
28. Cc1cc(-c2ccnc(Nc3cnn(C4CCC(C(=O)O)CC4)c3)n2)ccc1CNC(=O)c1cnn(C(C)(C)C)c1 (stereo in doubt) [Example I-195]; < 500 nM
29. COCCn1cc(Nc2nccc(-c3ccc(CNC(=O)N4CC(OC(C)(C)C)C4)c(C)c3)n2)cn1; < 500 nM
